Taken from PubChem BioAssay (NCI).

Tested on: ACHN renal
Assay: NCI tumour cell line growth inhibition, 48 h
quantity.measured: TGI

Examples with answers:
For CCCCCCNC(=O)c1cc(NCc2cc(O)ccc2O)ccc1O , what is its reported TGI? 15.7 µM

Here is the next compound: CNC(C#N)c1ccc(OC)cc1 (stereo not drawn) > 100 µM

For O=C1/C(=C/c2ccc(Br)cc2)COc2ccc(O)c(O)c21 then? 2.09 µM

Next:
Please report the recorded TGI for CCOC(=O)CCCn1c(SC)nc2[nH]cc(-c3ccccc3)c2c1=O . 43.2 µM

How about this compound: CCCC[C@@H]1CCN2C[C@@H](O)[C@@H](O)[C@@H]2[C@H]1O > 100 µM

----------
Quick list: TGI per entry.
Tested on: OVCAR-5 ovarian
Assay: NCI tumour cell line growth inhibition, 48 h

Below are worked cases with known answers.
Quick one: TGI for CN(C)N=Nc1ccc(NC=O)cc1 ? > 100 µM

Item: CCN(CC)CCOc1ccc(-c2nc3cc(Cl)ccc3s2)cc1 3.09 µM

Proceed to CCOc1ccccc1C=C1c2ccccc2C(=O)c2ccccc21 > 100 µM

Further cases:
Look up TGI for this molecule: Cc1ccc(C)c(C2=C(c3cn(C)c4ccccc34)C(=O)NC2=O)c1 > 25 µM

Let us now turn to CCCC[C@@H]1CCN2C[C@@H](O)[C@@H](O)[C@@H]2[C@H]1O > 100 µM

Next molecule up: O=C(Nc1ccc(Cl)cc1F)c1ccccc1O > 100 µM

What about O=c1cc(N2CCOCC2)[nH]c(=O)n1-c1ccc(F)cc1 ? > 100 µM

Field entry: COc1cc(C2CC(c3cccc(Br)c3)=NN2C(C)=O)cc(OC)c1OC (configuration not stated) > 100 µM

Likewise for CN(C)c1ccc(C(C=C2c3ccccc3Sc3ccccc32)=C(C#N)C#N)cc1 ? > 100 µM

Try this molecule too: FC(F)(F)c1ccc(N=C/C=C(/Nc2ccc(C(F)(F)F)cc2)c2ccc(Cl)cc2)cc1 38.3 µM

// next record COc1ccccc1/C(=N\OCCC(=O)O)c1cccs1 > 100 µM

Okay, and Cc1cc(N)c(C)c2c1[nH]c1ccc(O)cc12 ? > 100 µM

----------
Recorded TGI for the following compounds
Test system: ACHN renal
Assay: NCI tumour cell line growth inhibition, 48 h
Report the value in µM with no unit label.

Look up TGI: O=[N+]([O-])c1ccc(C2=Nn3cnnc3SC2)o1 29.4

Others:
Item NC(=O)NC1C(c2ccccc2)=C1c1ccccc1 has what recorded TGI? 31.2

----------
Test system: EKVX NSCLC
Test: NCI tumour cell line growth inhibition, 48 h
The compounds listed here are annotated with their TGI.

Name the recorded TGI for COc1ccc(CN2C(=O)/C(=C\C(=O)c3ccc(OCCN4CCCCC4)cc3)c3ccccc32)cc1 . 19.6 µM

Quick one: CCOc1ccccc1C=C1c2ccccc2C(=O)c2ccccc21 61.4 µM

Now this one: CNC(=O)N(C)N=NCCCl > 100 µM

Try this compound next: CC(C)=CCNc1ncnc2c1ncn2C1OC(CO)C(O)C1O (stereo not given) > 1000 µM

Another compound to check: O=c1[nH]c2c(nc1NC13CC4CC(CC(C4)C1)C3)c(=O)oc1ccccc12 > 100 µM

New cases:
What value of TGI has been recorded for this entry: CCCCc1c(N(C)C)c(OC(C)=O)c(-c2cn(C)c3ccccc23)oc1=O > 100 µM

Now this one: CCCn1c2ccccc2c2ccc3c(c21)C(=O)C=CC3=O > 7.95 µM

Please give the result for CC(=O)O[C@H]1C[C@H]2[C@@H](OC(C)=O)/C=C3\C[C@](C)(C(=O)[C@H](O)C(=C1C)C2(C)C)[C@@H](O)C[C@@H]3OC(=O)[C@H](O)[C@H](c1ccccc1)N(C)C too. > 100 µM

Next entry: Cc1cc(C)nc(NC(=O)c2ccc(Br)s2)c1 > 100 µM

Let us now turn to Cc1nn(-c2ccccc2)c2nc(N3CCOCC3)nnc12 > 100 µM

And C=CCCCCC/C=C\[C@H](O)C#CC#C/C=C/CO ? > 100 µM

Now try CC(C)c1ccc2c(c1)CC[C@@H]1[C@@](C)(C(=O)O)CCC[C@]21C . 6.94 µM

How about CCCC[C@@H]1CCN2C[C@@H](O)[C@@H](O)[C@@H]2[C@H]1O ? > 100 µM
